Target: Casein kinase I isoform epsilon (Homo sapiens, UniProt P49674)
Sequence (P49674 whole entry, canonical isoform): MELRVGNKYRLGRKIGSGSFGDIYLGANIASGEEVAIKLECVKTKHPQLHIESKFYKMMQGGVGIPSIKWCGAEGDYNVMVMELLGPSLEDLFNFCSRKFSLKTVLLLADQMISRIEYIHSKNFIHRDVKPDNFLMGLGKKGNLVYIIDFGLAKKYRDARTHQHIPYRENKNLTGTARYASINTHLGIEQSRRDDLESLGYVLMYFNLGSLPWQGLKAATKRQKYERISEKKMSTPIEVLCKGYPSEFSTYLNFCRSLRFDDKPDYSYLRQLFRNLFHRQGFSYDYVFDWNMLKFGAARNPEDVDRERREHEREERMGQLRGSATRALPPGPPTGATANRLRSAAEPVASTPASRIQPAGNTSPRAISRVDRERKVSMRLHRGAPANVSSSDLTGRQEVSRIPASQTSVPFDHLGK
measured-property: IC50

>  <compound>
Cc1ccc(CNC2=N/C(=C\c3ccc4ncsc4c3)C(=O)N2)c(C)c1

>  <tgt>
Casein kinase I isoform epsilon (Homo sapiens, UniProt P49674)

>  <value-reported>
> 10 µM

$$$$
>  <compound>
CN1CCC(NC2=N/C(=C\c3ccc4ncsc4c3)C(=O)N2)C1=O (racemic)

>  <tgt>
Casein kinase I isoform epsilon (Homo sapiens, UniProt P49674)

>  <value-reported>
> 10 µM

$$$$
>  <compound>
CO[C@H]1CC[C@H](NC2=N/C(=C\c3ccc4ncsc4c3)C(=O)N2)CC1

>  <tgt>
Casein kinase I isoform epsilon (Homo sapiens, UniProt P49674)

>  <value-reported>
> 10 µM

$$$$

API: value(readout= IC50, system= Casein kinase I isoform epsilon (Homo sapiens, UniProt P49674), query= CN1CCCC(NC2=N/C(=C\c3ccc4ncsc4c3)C(=O)N2)C1 (racemic) ) > 10 µM

API: value(readout= IC50, system= Casein kinase I isoform epsilon (Homo sapiens, UniProt P49674), query= O=C1NC(NCC(O)C2CCCCC2)=N/C1=C\c1ccc2ncsc2c1 (racemic) ) 6.93 µM

API: value(readout= IC50, system= Casein kinase I isoform epsilon (Homo sapiens, UniProt P49674), query= CC(=O)N1CCc2ccc(NC3=N/C(=C\c4ccc5ncsc5c4)C(=O)N3)cc21 ) > 10 µM

API: value(readout= IC50, system= Casein kinase I isoform epsilon (Homo sapiens, UniProt P49674), query= Cn1cnc2cc(/C=C3\N=C(NC4CCCCC4)NC3=O)ccc21 ) > 10 µM

API: value(readout= IC50, system= Casein kinase I isoform epsilon (Homo sapiens, UniProt P49674), query= O=C1NC(NC2CCCCCC2)=N/C1=C\c1ccc2nnsc2c1 ) > 10 µM

API: value(readout= IC50, system= Casein kinase I isoform epsilon (Homo sapiens, UniProt P49674), query= O=C1NC(NC2CCC(F)(F)CC2)=N/C1=C\c1ccc2ncsc2c1 ) > 10 µM

API: value(readout= IC50, system= Casein kinase I isoform epsilon (Homo sapiens, UniProt P49674), query= O=C1NC(Nc2ccc(N3CCOCC3)cc2)=N/C1=C\c1ccc2ncsc2c1 ) > 10 µM

###

Data export: IC50 values recorded with Cyclin-dependent kinase 5/CDK5 activator 1 (Homo sapiens).
Sequence (Q00535 whole entry): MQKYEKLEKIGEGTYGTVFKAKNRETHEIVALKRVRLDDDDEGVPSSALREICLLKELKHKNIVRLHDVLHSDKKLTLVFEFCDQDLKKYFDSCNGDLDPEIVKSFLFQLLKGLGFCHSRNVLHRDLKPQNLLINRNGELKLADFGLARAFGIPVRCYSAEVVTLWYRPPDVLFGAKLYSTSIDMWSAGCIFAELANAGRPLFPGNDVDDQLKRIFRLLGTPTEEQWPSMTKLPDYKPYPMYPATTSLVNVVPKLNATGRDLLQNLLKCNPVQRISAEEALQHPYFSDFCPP
Sequence (Q15078 whole entry, further chain): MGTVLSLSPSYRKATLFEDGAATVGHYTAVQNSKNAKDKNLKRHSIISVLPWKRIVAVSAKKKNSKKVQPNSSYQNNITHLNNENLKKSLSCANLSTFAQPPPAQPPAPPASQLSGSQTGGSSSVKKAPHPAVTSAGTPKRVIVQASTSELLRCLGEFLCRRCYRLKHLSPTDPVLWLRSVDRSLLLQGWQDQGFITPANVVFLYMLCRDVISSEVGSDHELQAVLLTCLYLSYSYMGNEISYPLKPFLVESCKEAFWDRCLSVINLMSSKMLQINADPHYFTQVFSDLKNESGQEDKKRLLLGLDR

>  <molecule>
Cn1cnc2ccc(/C=C3\N=C(NC4CCCCCC4)NC3=O)cc21

>  <value-reported>
8.7 µM

$$$$
>  <molecule>
Cn1ccc2cc(/C=C3\N=C(NC45CC6CC(CC(C6)C4)C5)NC3=O)ccc21

>  <value-reported>
> 10 µM

$$$$
>  <molecule>
O=C1NC(NC2COC2)=N/C1=C\c1ccc2ncsc2c1

>  <value-reported>
> 10 µM

$$$$

API: value(readout= IC50, system= Cyclin-dependent kinase 5/CDK5 activator 1 (Homo sapiens), query= CC(NC1=N/C(=C\c2ccc3ncsc3c2)C(=O)N1)C12CC3CC(CC(C3)C1)C2 (racemic) ) > 10 µM

API: value(readout= IC50, system= Cyclin-dependent kinase 5/CDK5 activator 1 (Homo sapiens), query= O=C1NC(NC2CCCCCC2)=N/C1=C\c1ccc2nnsc2c1 ) > 10 µM

API: value(readout= IC50, system= Cyclin-dependent kinase 5/CDK5 activator 1 (Homo sapiens), query= O=C1NC(NCCc2ccccn2)=N/C1=C\c1ccc2ncsc2c1 ) > 10 µM

API: value(readout= IC50, system= Cyclin-dependent kinase 5/CDK5 activator 1 (Homo sapiens), query= COCC(Cc1ccccc1)NC1=N/C(=C\c2ccc3ncsc3c2)C(=O)N1 (stereo not given) ) > 10 µM

API: value(readout= IC50, system= Cyclin-dependent kinase 5/CDK5 activator 1 (Homo sapiens), query= O=C1NC(Nc2ncccn2)=N/C1=C\c1ccc2ncsc2c1 ) > 10 µM

API: value(readout= IC50, system= Cyclin-dependent kinase 5/CDK5 activator 1 (Homo sapiens), query= CC1(NC2=N/C(=C\c3ccc4ncsc4c3)C(=O)N2)CCNC1=O (racemic) ) > 10 µM

API: value(readout= IC50, system= Cyclin-dependent kinase 5/CDK5 activator 1 (Homo sapiens), query= O=C1NC(NC23CC4CC(CC(C4)C2)C3)=N/C1=C\c1ccc2c(c1)CCO2 ) > 10 µM
